- measured_target: Amaranthus mutant PPO (AMARE) (Amaranthus tuberculatus, UniProt Q0NZW9, F420M/R128I)
- Sequence (Q0NZW9 1-534 R128I/F420M): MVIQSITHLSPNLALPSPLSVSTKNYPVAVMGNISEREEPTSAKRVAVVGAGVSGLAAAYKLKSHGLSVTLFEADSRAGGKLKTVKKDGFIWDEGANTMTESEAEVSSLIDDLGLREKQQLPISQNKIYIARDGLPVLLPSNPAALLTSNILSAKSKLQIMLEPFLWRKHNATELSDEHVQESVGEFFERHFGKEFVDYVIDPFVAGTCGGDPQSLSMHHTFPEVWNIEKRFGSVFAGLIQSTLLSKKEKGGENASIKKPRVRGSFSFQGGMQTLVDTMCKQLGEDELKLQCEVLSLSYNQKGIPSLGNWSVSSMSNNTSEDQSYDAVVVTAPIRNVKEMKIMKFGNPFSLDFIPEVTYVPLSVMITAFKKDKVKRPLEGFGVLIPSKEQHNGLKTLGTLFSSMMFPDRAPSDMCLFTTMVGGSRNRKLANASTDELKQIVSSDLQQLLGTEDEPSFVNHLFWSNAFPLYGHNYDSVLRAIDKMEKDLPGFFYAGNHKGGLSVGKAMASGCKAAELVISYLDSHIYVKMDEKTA
- test: biochemical
pIC50: −log10 of the molar value.

- molecule: "C#CCN1C(=O)C(F)(F)Oc2cc(F)c(-n3c(=O)n(C)c(=S)n(C)c3=O)cc21 [BAS 850H]"
  relation_operator: "="
  pIC50: 6.61
- molecule: "CC(C)N(C)S(=O)(=O)NC(=O)c1cc(-n2c(=O)cc(C(F)(F)F)n(C)c2=O)c(F)cc1Cl [saflufenacil]"
  relation_operator: "<"
  pIC50: 5.00

###

- measured_target: Amaranthus mutant PPO (AMARE) (Amaranthus tuberculatus, UniProt Q0NZW9, F420V)
- Sequence (Q0NZW9 1-534 F420V): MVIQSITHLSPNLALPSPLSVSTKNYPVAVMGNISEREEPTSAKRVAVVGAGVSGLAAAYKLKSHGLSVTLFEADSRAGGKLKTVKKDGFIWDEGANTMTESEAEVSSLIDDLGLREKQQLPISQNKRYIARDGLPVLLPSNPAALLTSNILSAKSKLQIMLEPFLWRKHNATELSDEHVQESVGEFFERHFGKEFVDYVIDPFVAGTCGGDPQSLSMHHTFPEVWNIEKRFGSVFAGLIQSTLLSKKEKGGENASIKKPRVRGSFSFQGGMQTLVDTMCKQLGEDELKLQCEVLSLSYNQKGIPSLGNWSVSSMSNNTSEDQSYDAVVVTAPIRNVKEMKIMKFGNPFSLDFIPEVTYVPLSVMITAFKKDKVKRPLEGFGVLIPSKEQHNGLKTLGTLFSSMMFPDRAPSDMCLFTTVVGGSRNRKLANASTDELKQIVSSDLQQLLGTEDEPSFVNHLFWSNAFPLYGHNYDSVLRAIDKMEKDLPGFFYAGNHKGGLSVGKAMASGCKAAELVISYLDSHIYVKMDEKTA
- test: biochemical
pIC50: −log10 of the molar value.
Let's look at some compounds and their measured pIC50.
assay_readout: pIC50

- compound: "C#CCN1C(=O)C(F)(F)Oc2cc(F)c(-n3c(=O)n(C)c(=S)n(C)c3=O)cc21 [BAS 850H]"
  measured_target: "Amaranthus mutant PPO (AMARE) (Amaranthus tuberculatus, UniProt Q0NZW9, F420V)"
  numeric_value: 8.79
- compound: "CC(C)N(C)S(=O)(=O)NC(=O)c1cc(-n2c(=O)cc(C(F)(F)F)n(C)c2=O)c(F)cc1Cl"
  measured_target: "Amaranthus mutant PPO (AMARE) (Amaranthus tuberculatus, UniProt Q0NZW9, F420V)"
  numeric_value: 5.80

Value source: patent US10392630B2
